B1: TPR t1 (parent)
chain: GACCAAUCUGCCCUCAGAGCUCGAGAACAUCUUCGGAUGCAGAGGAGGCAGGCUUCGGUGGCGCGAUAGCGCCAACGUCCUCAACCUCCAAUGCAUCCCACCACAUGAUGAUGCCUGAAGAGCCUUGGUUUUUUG

- Variants of: B1
- METHOD DESCRIPTION: polymerase ribozyme fitness, log enrichment relative to wild type (log ratio); higher = more active; in vitro selection for triplet polymerase activity
# label = Y if polymerase ribozyme fitness (log ratio) >= -5 else N

ENTRY SEQUENCE	LABEL CLASS
GACCAAUCUGCCCUCAGAGCUCGAGAACAUCUUCGGAUGCAGAGAAGGCAGGCUUCGGUGGCGCGAUAGCGCCGACGUCCUCAACCUCCAAUGCAUCCCACCACAUGAUGAUGCGUGAAGAGCCUUCGUUUUUUG [G45A A74G C115G G127C]	Y
GACCAAUCUGCCCUCAGAGCUCGAGUACAUCUUCGGAUGCAGAGGAGGCAGGCUUCGGUAGCGCGAUAGCGCCAACGUCCUCAACCUCCAAUGCAUUCCACCACAUGAUUAUGCCUGAAGAGCCUUGGUUUUUUG [A26U G60A C97U G110U]	N
GACCAAUCUGCCCUCAGACCUUGAGAACAUCUUCGGAUGCAGAGGCGGCAGGCUUCGGUGGCGCGAUAGCGCCAACGUCCUCAACCUCCAAUGCAUCCCACCACAUGAUGAUGUCUGAAGAGCCUUGGUUUUUUG [G19C C22U A46C C114U]	N
GACCAAUUUGUCCUCAGAGCUCGAGAACUUCUUCGGAUGCAGAGGAGGCAGGCUUCGGUGGCGCGAUAGAGCCAACGUCCUCAACCUCCAAUGCAUCCCACCACAUGAUGAUGCCUGAAGAGCCUUGGUUUUUUG [C8U C11U A29U C70A]	Y
GACCAAUCUGCCCUCAGAGCUCCAGGACAUCUUCGGAUGCAGAGGAGGCAGGCUUCGGUGGCGCGAUAGCGCCAACGUCCUCAACCUCCAAUGCAUCCCACCACAUGAUGAUGCCUGAAGAGCUUUGGUUUUUUG [G23C A26G C124U]	N
GACCAAUCUGCCCUCAGAGCUCGAGAACAUCUUCGGAUGCAGGGGAGGCUGGCUUCGGUGGCGCGAUAGCGCCAACGUCCUCAACCUCCAAUGCAUCCCACCACAUGAUGAUGCCUGAAGAGCCUUGGUUUUUUG [A43G A50U]	Y
GACCAAUCUGCCCUCAGAGCUCGAGAACAUCAUCGGAUGCAGAGGAGGCAGGCUUCGGUGGCGCGAUAGCGCCCACGUCCUCAACCUCCAAUGCAUCCCACCACAUGAUGAUGGCUGAAGAGCCUUGGUUUUUUG [U32A A74C C114G]	Y
GACCAAUCUGCCCUCAUAGCUCGAGAACAUCUUCGGAUGCAGAGGUGGCAGGGUUCGGUGGCCCGAUAGCGCCAACGUCCUCCAGCUCUAAUGCAUCCCACCACAUGAUGAUGCCUGAAGCGUCUAGGUUUUUUG [G17U A46U C53G G63C A83C C85G C89U A121C C123U U126A]	N
GACCAAUCUGCCCUCAGAGCUCGAGAACAUCUUCGGAUGCAGACGAGGCAGGCUUCGGUGGCGCGAUAGCGCCAACGUCCUCAACCUCCAGUGCAUCCCACCACAUGAUGAUGCCUGAAGAGCCUUGGUUUUUUG [G44C A91G]	Y
GACCAAUCUGCCCUCAGAGGUCGAGGACAUCUUCGGAUGCAGAGGAGGCAGGCUUCGGUGGCGAGAUAGUGCCAACGCCCUCAACCUCCAAUGCAUCCCACCACAUGAUGAAGCCUGAAGAGCCUUGGUUUUUUG [C20G A26G C64A C70U U78C U112A]	N
GACCAAUCUGCCCUCAGAGCUCGAGAACAUCUUCGGAUGCAGAGGAGGCAGGCUUCGGUGGCGCGAUCGCGCCAACGUCCUCAACCUCCAAUGCAUCCCACCACAUGAUGAUGCCAGAUGAGCUUUGGUUUUUUG [A68C U116A A119U C124U]	N
GACCAAUCUGCCCUCAGAGCUCGAGAAUAUCUUCGGAUGCAGAUGAGGUAGGCUUCGGUGGCCCGAUAGCGCCAACGUCCUCAACCUCCAAUGCAUCCCACCACAUGAUAAUGCCUGAAGAGCCUUGGUUUUUUG [C28U G44U C49U G63C G110A]	Y
GACCAAUCUGCCCUCUGAGCUCGAGAACAUCUUCGGAUGCAGAGGAUGCAGGCUUCGGUUGCGCGAUAGCGCCAACGUCCUCAACCUCCAAUGCAUCCCACCACAUGAUGAGGCCUGAAGAGCCUUGGUUUUUUG [A16U G47U G60U U112G]	Y
GACCAAUCUUCCCUCAGAGCUCGAGAACAUCUUCGGAUGUGGAGGCGGCAGGCUUCGGUGGCGUGAUAGCGCCAACGUCCUCAACCUCCAAUGCAUCCCACCACAUGAUGAUGCCUGAAGAGCCUUGGUUUUUUG [G10U C40U A41G A46C C64U]	N
GACCAAUCUGCCCUCAGAGCUCGAGAACAUCUUCGGAUGCAGAGGGGGCAGGCUUCGGUGGCGCGAUAGGGCCAACGUCCUCAACCUCCAAUGCAUCCCACCACAUGAUGAUGCCUGAAGAGCCUUGGUUUUUUG [A46G C70G]	Y
GACCAAUCUGCUCUCAGAGCUCGAGAACAUCUUCGGAUGCAGAGGAGGCAGGCUUCGGUGGCGCGAUAGCGUCAACGUCCUCAACCUCCAAUGCAUCCCACCAAAUGAUGAUGCCUGAAGAGCCGUGGUUUUUUG [C12U C72U C104A U125G]	Y
GACCAAUCUGCCCUCAGAGCUCGAGAACAUCUUCGGAUGCAGAGGAGACAGGCUUCGGUGGCGCGAUAGCGCAAACGUCCUCAACCUCCAAAGCAUCCCACCACAUGAUGAUGCUUGAAGAGCCUUGGUUUUUUG [G48A C73A U92A C115U]	N
